- test: Plasma clearance in rat
- Format: ADME, organism-based
measured.quantity: clearance (L/h/kg)

>>> recorded_number("CS(=O)(=O)C1(c2cc(N3CCOCC3)nc(-c3cccc4[nH]ccc34)n2)CC1")
0.9

* * *

- test: physchem
- test.parameters: octanol/buffer, pH 7.4
Here, each record is paired with measured logD data.
measured.quantity: logD

>>> recorded_number("C[C@@H]1COCCN1c1cc(C2(S(C)(=O)=O)CC2)nc(-c2cccc3[nH]ccc23)n1")
2.7
>>> recorded_number("C[C@H]1COCCN1c1cc(C2(S(C)(=O)=O)CC2)nc(-c2cccc3[nH]ccc23)n1")
2.8
>>> recorded_number("CC(C)(c1cc(N2CCOCC2)nc(-c2cccc3[nH]ccc23)n1)S(C)(=O)=O")
2.7

* * *

- study.target: Serine/threonine-protein kinase ATR (Homo sapiens)
- Sequence (Q13535 whole entry): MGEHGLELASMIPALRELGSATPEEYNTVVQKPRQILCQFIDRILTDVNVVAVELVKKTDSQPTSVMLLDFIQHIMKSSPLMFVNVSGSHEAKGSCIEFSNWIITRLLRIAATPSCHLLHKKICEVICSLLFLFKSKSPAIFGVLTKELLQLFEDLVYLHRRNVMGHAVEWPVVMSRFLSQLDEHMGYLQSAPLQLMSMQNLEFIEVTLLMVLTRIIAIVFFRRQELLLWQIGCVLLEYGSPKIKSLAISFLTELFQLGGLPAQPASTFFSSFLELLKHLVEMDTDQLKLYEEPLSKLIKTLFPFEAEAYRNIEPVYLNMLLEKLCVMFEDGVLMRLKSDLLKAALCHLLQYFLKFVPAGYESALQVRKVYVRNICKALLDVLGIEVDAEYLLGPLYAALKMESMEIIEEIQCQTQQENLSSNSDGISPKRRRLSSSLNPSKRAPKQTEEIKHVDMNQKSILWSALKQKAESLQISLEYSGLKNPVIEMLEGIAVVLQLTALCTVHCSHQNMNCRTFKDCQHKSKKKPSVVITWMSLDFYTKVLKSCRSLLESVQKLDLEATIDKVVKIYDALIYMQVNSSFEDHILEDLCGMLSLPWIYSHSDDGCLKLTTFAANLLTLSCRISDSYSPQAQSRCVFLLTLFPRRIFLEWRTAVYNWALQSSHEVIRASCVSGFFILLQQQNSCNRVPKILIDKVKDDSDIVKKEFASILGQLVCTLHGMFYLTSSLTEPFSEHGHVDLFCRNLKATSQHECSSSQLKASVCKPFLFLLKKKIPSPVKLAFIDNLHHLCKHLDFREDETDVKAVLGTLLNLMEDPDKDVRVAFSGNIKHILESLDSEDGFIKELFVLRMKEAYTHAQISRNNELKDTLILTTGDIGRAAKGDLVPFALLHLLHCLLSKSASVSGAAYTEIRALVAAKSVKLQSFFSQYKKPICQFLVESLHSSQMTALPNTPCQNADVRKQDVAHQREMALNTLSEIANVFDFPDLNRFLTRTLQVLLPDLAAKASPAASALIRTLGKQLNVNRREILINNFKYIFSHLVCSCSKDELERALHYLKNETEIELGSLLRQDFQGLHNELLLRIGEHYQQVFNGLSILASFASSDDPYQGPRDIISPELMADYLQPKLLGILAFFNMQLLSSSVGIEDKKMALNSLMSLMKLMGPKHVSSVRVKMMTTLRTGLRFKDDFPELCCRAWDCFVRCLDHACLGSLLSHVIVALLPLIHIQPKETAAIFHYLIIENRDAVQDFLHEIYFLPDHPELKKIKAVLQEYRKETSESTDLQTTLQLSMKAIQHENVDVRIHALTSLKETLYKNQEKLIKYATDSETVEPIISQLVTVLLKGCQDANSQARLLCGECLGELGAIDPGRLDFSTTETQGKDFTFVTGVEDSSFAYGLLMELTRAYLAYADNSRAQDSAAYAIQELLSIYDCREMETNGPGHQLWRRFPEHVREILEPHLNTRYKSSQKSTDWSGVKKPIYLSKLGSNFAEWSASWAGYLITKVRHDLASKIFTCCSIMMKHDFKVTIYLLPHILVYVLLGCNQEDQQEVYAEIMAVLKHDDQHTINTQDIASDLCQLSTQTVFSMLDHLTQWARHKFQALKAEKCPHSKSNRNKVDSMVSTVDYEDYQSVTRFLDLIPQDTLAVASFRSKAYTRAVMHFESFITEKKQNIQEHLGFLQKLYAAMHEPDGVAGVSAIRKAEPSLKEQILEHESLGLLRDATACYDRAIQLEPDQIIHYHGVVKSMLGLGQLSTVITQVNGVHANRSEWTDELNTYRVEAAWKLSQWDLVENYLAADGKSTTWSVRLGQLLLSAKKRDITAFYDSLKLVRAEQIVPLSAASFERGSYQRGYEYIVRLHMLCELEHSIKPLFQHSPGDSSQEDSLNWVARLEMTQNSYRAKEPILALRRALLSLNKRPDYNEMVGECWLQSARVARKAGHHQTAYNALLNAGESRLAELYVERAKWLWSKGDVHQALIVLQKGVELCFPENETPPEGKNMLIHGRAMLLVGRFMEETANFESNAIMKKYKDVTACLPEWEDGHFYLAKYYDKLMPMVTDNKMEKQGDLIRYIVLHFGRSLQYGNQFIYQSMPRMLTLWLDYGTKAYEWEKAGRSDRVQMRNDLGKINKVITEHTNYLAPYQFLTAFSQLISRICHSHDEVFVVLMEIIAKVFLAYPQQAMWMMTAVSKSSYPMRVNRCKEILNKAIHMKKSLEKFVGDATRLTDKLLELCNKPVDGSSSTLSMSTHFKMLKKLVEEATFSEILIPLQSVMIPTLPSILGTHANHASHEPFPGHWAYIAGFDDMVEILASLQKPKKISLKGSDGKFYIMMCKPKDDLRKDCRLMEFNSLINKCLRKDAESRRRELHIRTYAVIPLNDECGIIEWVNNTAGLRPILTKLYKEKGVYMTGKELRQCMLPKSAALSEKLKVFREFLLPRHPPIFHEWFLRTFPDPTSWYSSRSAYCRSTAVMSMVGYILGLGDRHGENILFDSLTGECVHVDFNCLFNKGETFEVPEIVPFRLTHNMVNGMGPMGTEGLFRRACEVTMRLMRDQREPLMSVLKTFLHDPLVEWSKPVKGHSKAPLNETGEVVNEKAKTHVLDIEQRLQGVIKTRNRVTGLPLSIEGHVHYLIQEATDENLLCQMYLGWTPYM
- Type: cell-based, HT-29
pIC50: −log10 of the molar value.
measured.quantity: pIC50

>>> result("CC(C)(c1cc(N2CCOCC2)nc(-c2cccc3[nH]ccc23)n1)S(C)(=O)=O")
6.55
>>> result("CS(=O)(=O)C1(c2cc(N3CCOCC3)nc(-c3ccccc3)n2)CC1")
"< 4.52"
>>> result("CS(=O)(=O)Cc1cc(N2CCOCC2)nc(-c2ccc3cc[nH]c3c2)n1")
"< 4.52"
>>> result("CS(=O)(=O)C1(c2cc(N3CCOCC3)nc(-c3cccc(N)c3)n2)CC1")
"< 4.52"
